B1: library; numbered along this chain (parent)
chain: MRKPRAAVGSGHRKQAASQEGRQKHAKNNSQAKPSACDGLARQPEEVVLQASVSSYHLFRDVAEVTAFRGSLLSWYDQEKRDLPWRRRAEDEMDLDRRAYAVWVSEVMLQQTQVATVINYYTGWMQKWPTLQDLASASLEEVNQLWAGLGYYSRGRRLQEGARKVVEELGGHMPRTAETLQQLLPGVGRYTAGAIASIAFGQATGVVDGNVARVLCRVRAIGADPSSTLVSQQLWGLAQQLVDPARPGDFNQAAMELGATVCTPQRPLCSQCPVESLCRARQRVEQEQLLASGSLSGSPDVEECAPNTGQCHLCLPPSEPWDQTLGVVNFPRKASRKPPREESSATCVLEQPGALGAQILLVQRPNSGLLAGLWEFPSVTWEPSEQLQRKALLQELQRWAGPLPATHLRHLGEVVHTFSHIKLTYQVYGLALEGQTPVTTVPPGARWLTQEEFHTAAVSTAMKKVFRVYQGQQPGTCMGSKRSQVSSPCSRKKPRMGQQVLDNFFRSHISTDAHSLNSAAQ

- Variants of: B1
- testName: 8OG:A repair function score (normalized; synonymous = 0, nonsense = -1) (normalized log-likelihood score); higher = more repair activity (WT-like);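 further: cells sorted at 72 h after reporter transfection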
- conditionLabel: with 8OG:A DNA repair reporter (GFP) in HEK-293 MUTYH KO cells
endpointLabel: 8OG:A repair function score

# mut, endpointLabel, val
data = [
    ("P264F", "8OG:A repair function score", -0.223),
    ("L403R", "8OG:A repair function score", -0.392),
    ("P402R", "8OG:A repair function score", -0.0808),
    ("A291Q", "8OG:A repair function score", 0.00288),
    ("W381D", "8OG:A repair function score", -0.141),
    ("K3R", "8OG:A repair function score", -0.0184),
    ("Q282M", "8OG:A repair function score", -0.0222),
    ("N503Y", "8OG:A repair function score", -0.0151),
    ("Y469L", "8OG:A repair function score", -0.314),
    ("S384R", "8OG:A repair function score", -0.115),
    ("S231F", "8OG:A repair function score", -0.24),
    ("D512N", "8OG:A repair function score", -0.0198),
    ("E319R", "8OG:A repair function score", 0.0109),
    ("G444Q", "8OG:A repair function score", -0.113),
    ("Q394P", "8OG:A repair function score", -0.467),
    ("Y469T", "8OG:A repair function score", -0.181),
    ("W124L", "8OG:A repair function score", -0.378),
    ("L234V", "8OG:A repair function score", -0.29),
    ("T439Q", "8OG:A repair function score", -0.173),
    ("S71C", "8OG:A repair function score", -0.00534),
    ("R364S", "8OG:A repair function score", -0.2),
    ("W85E", "8OG:A repair function score", -1.28),
    ("A220N", "8OG:A repair function score", -0.671),
    ("Q113F", "8OG:A repair function score", -0.237),
    ("R2T", "8OG:A repair function score", 0.0193),
    ("A41D", "8OG:A repair function score", -0.0561),
    ("P244V", "8OG:A repair function score", -0.427),
    ("D96P", "8OG:A repair function score", -0.177),
    ("S510Y", "8OG:A repair function score", -0.0344),
    ("E45Q", "8OG:A repair function score", -0.0405),
    ("V107Y", "8OG:A repair function score", -0.533),
    ("M125N", "8OG:A repair function score", -0.838),
    ("Q265T", "8OG:A repair function score", 0.00721),
    ("R213V", "8OG:A repair function score", -1.01),
    ("W381V", "8OG:A repair function score", 0.0132),
    ("P339Y", "8OG:A repair function score", -0.144),
    ("E167L", "8OG:A repair function score", 0.00804),
    ("Q271Y", "8OG:A repair function score", -0.0212),
    ("E141C", "8OG:A repair function score", -0.219),
    ("P331Y", "8OG:A repair function score", -0.276),
    ("N307A", "8OG:A repair function score", -0.0752),
    ("G39D", "8OG:A repair function score", 0.118),
    ("R279M", "8OG:A repair function score", -0.178),
    ("V414W", "8OG:A repair function score", -0.504),
    ("F59N", "8OG:A repair function score", -0.954),
    ("E141P", "8OG:A repair function score", -0.499),
]
